Each entry below lists one item and its recorded IC50 value.
Test system: mouse splenocytes
measurement-description: Inhibition of B Cell Activation as Measured by CD69 Expression in Mouse Splenocytes
Format: cell-based
condition-set: Mus musculus, Splenocyte, read-out: Mouse spleenocyte IC50 (nM)
readout-kind: IC50 (nM)

CC1(O)CCN(Cc2ccc(-c3cc4c(-c5cccc(N6CCOc7cc(C8CC8)ccc7C6=O)c5CO)ncnc4[nH]3)cc2)CC1	81
O=C(CN1CCC1)N1CC=C(c2cc3c(-c4cccc(N5CCOc6cc(C7CC7)cc(F)c6C5=O)c4CO)ccnc3[nH]2)CC1	63

* * *

Each entry below lists one item and its recorded IC50 value.
Tested on: mouse splenocytes
measurement-description: Inhibition of B Cell Activation as Measured by CD69 Expression in Mouse Splenocytes
Assay type: cell-based
condition-set: Splenocyte; C57/BL6 splenocytes, 3 ug/mL goat anti-mouse IgM, 18-20 hrs, CD69+ve cells within CD19; read-out: Mouse spleenocyte IC50
readout-kind: IC50 (µM)

Cc1c(-c2ncnc3[nH]c(-c4ccc(C(=O)N5CCC(O)CC5)cc4)cc23)cccc1N1CCOc2cc(C3CC3)ccc2C1=O [Example K-2]	0.815
Cc1c(-c2ncnc3[nH]c(-c4ccc(C(=O)N5CCC(C)(O)CC5)cc4)cc23)cccc1N1CCOc2cc(C3CC3)ccc2C1=O [Example K-4]	0.129
CN1CCOC(c2ccc(-c3cc4c(-c5cccc(N6CCOc7cc(C8CC8)ccc7C6=O)c5CO)ccnc4[nH]3)cc2)C1 (stereo not drawn) [Example C-5]	0.125

* * *

tgt: human Bruton's Tyrosine Kinase (Btk) (Homo sapiens (Human), UniProt Q06187)
Sequence (Q06187 whole entry): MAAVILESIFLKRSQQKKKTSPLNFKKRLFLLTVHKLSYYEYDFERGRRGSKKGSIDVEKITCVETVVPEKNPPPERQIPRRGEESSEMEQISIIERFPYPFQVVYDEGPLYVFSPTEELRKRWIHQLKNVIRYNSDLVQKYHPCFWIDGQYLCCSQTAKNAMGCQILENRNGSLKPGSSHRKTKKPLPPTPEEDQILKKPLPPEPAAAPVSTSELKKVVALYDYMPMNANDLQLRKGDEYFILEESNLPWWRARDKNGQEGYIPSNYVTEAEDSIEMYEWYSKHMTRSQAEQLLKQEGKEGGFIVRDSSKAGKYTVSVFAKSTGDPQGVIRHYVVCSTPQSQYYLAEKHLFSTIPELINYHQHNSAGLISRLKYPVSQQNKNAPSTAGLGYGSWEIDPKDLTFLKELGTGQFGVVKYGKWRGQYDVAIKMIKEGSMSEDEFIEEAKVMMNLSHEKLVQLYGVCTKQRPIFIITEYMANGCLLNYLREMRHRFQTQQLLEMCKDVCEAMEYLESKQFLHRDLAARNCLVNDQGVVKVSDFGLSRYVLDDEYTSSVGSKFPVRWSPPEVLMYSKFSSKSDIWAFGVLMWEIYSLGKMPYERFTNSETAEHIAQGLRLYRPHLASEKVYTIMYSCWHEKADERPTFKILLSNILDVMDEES
measurement-description: Recombinant Human Bruton's Tyrosine Kinase (Btk) Inhibition Assay (HTRF KinEASE-TK)
Assay type: biochemical
condition-set: 20 ng/ml rhBtk, 77 μM ATP (KM), 1 μM TK-Biotin substrate, 90 min; read-out: hBTK IC50
Each entry below lists one item and its recorded log10 of IC50 value.
readout-kind: log10 of IC50 (log10 of the value in nM)

NC(=O)c1ccc(-c2cc3c(-c4cccc(N5CCOc6cc(C7CC7)ccc6C5=O)c4CO)ccnc3[nH]2)nc1	0.30
Cc1c(-c2ncnc3[nH]c(-c4ccc(CN5CCNC(=O)C5)cc4)cc23)cccc1N1CCc2cc(C3CC3)ccc2C1=O	2.40
Cc1c(-c2ncnc3[nH]c(-c4ccc(C(=O)N5CCC(C)(O)CC5)cc4)cc23)cccc1N1CCOc2cc(C3CC3)ccc2C1=O	1.71
CC(C)N1CCN(Cc2ccc(-c3cc4c(-c5cccc(N6CCOc7cc(C8CC8)ccc7C6=O)c5CO)ccnc4[nH]3)nc2)CC1	0.30
Cc1c(-c2nc(N)nc3[nH]c(-c4ccc(N5CCOCC5)nc4)cc23)cccc1N1CCOc2cc(C3CC3)ccc2C1=O	2.26
CN1CCCC(n2cc(-c3cc4c(-c5cccc(N6CCOc7cc(C8CC8)ccc7C6=O)c5CO)ncnc4[nH]3)cn2)C1 (centres unmarked)	0.70
CN1CC=C(c2ccc(-c3cc4c(-c5cccc(N6CCOc7cc(C8CC8)ccc7C6=O)c5CO)ccnc4[nH]3)cc2)CC1	1.04
CC(=O)N1CC(N2CC=C(c3cc4c(-c5cccc(N6CCOc7cc(C8CC8)cc(F)c7C6=O)c5CO)ccnc4[nH]3)CC2)C1	0.34
Cc1c(-c2ncnc3[nH]c(-c4ccc(CN5CCNCC5)cc4)cc23)cccc1N1CCc2cc(C3CC3)ccc2C1=O	0.85
O=C1c2ccc(C3CC3)cc2OCCN1c1cccc(-c2ncnc3[nH]c(-c4ccc(CN5CCOCC5)cc4)cc23)c1CO	0.90
CN1CCN(c2ccc(-c3cc4c(-c5cccc(N6CCOc7cc(C8CC8)ccc7C6=O)c5CO)ncnc4[nH]3)cc2)CC1	1.08
O=C1c2c(F)cc(C3CC3)cc2OCCN1c1cccc(-c2ccnc3[nH]c(C4=CCN(C5CCOCC5)CC4)cc23)c1CO	0.53
CS(=O)(=O)N1CC=C(c2cc3c(-c4ccnc(N5CCOc6cc(C7CC7)cc(F)c6C5=O)c4CO)ccnc3[nH]2)CC1	2.79
CN1CCC(n2cc(-c3cc4c(-c5cccc(-n6ccc7cc(C8CC8)ccc7c6=O)c5CO)ncnc4[nH]3)cn2)CC1	0.70
CN1CCN(Cc2ccc(-c3cc4c(-c5cccc(N6CCOc7cc(C8CC8)cc(F)c7C6=O)c5CO)ccnc4[nH]3)nc2)CC1	0.00
O=C1c2ccc(C3CC3)cc2OCCN1c1cccc(-c2ccnc3[nH]c(-c4ccc(CN5CCN(CC(F)(F)F)CC5)cn4)cc23)c1CO	0.90
O=C1c2c(F)cc(C3CC3)cc2OCCN1c1cccc(-c2ccnc3[nH]c(-c4ccc(CN5CCN(CC(F)(F)F)CC5)cn4)cc23)c1CO	0.20
Cc1c(-c2ncnc3[nH]c(-c4ccc(CN5CCN(C)CC5)cc4)cc23)cccc1-n1ccc2cc(C3CC3)ccc2c1=O	1.00
CS(=O)(=O)N1CC=C(c2cc3c(-c4cccc(N5CCOc6cc(C7CC7)cc(F)c6C5=O)c4CO)ccnc3[nH]2)CC1	1.00
O=C(N1CC=C(c2cc3c(-c4cccc(N5CCOc6cc(C7CC7)cc(F)c6C5=O)c4CO)ccnc3[nH]2)CC1)N1CCOCC1	0.23
O=C(CN1CC=C(c2cc3c(-c4cccc(N5CCOc6cc(C7CC7)cc(F)c6C5=O)c4CO)ccnc3[nH]2)CC1)N1CCC1	0.08
Cc1c(-c2ncnc3[nH]c(-c4ccc(CN5CCN(C)CC5)cc4)cc23)cccc1N1CCOc2cc(C3CC3)ccc2C1=O	1.49
Cc1c(-c2ncnc3[nH]c(-c4ccc(CN5CCC(O)CC5)cc4)cc23)cccc1N1CCc2cc(C3CC3)ccc2C1=O	1.51
CN1CC(N2CC=C(c3cc4c(-c5cccc(N6CCOc7cc(C8CC8)cc(F)c7C6=O)c5CO)ccnc4[nH]3)CC2)C1	0.20

Ref: patent US9233983B2
